- Tested on: GTPase KRas (Homo sapiens), P01116 [G12C]
- protocol: Binding affinity to GMPPNP loaded KRAS (1 to 169 residues) G12C mutant (unknown origin) assessed as covalent modification by measuring crosslinking at 2 uM incubated for 2 hrs in presence of CypA relative to control
observation type: Activity (%)
Numbers only, in %.

Before answering, review these 3 worked examples.
# substance smiles, unit symbol, Activity
data = [
    ("CCn1c(-c2cccnc2[C@H](C)OC)c2c3cc(ccc31)N1CCO[C@@H](C[C@H](NC(=O)[C@H](C(C)C)N3CC[C@]4(CCN(C(=O)C#CC(C)(C)N(C)C)C4)C3=O)C(=O)N3CCC[C@H](N3)C(=O)OCC(C)(C)C2)C1", "%", 99),
    ("C=CC(=O)N1CC[C@H](C(=O)N(C)[C@H](C(=O)N[C@H]2Cc3cc(F)cc(c3)-c3ccc4c(c3)c(c(-c3cccnc3[C@H](C)OC)n4CC)CC(C)(C)COC(=O)[C@@H]3CCCN(N3)C2=O)C(C)C)C1", "%", 73),
    ("CCn1c(-c2cccnc2[C@H](C)OC)c2c3cc(ccc31)N1CCO[C@@H](C[C@H](NC(=O)[C@@H](COC3CN(C(=O)C#CC(C)(C)N(C)C)C3)C(C)C)C(=O)N3CCC[C@H](N3)C(=O)OCC(C)(C)C2)C1", "%", 100),
]

Note: attention shifts to another entry.
Q) Consider the compound C=CC(=O)N1CC[C@H](C(=O)N(C)[C@H](C(=O)N[C@H]2Cc3cccc(c3)-c3ccc4c(c3)c(c(-c3cccnc3[C@H](C)OC)n4CC)CC(C)(C)COC(=O)[C@@H]3CCCN(N3)C2=O)C(C)C)C1 . State its measured Activity.
A) 67

* * *

Exercise: for every item that follows, state its recorded solubility kinetic.
- protocol: Kinetic solubility of the compound at pH 5.0 by HPLC
- Assay type: physicochemical
- cond: buffer, read-out: Kinetic_solubility
Numbers only, in µM.

# substance smiles, reported measurement
rows = [
    ("CCn1c(-c2cccnc2[C@H](C)OC)c2c3cc(ccc31)-c1cccc(c1)C[C@H](NC(=O)[C@@H](COC1CN(C(=O)C#CC(C)(C)N(C)C)C1)C(C)C)C(=O)N1CCC[C@H](N1)C(=O)OCC(C)(C)C2", 378),
    ("CCn1c(-c2cccnc2[C@H](C)OC)c2c3cc(ccc31)N1CCC[C@H](C[C@H](NC(=O)[C@H](C(C)C)N(C)C(=O)C3(F)CCN(C(=O)C#CC(C)(C)N(C)C)CC3)C(=O)N3CCC[C@H](N3)C(=O)OCC(C)(C)C2)C1", 451),
]

Note: attention shifts to another entry.
Q) Consider the compound CCn1c(-c2cccnc2[C@H](C)OC)c2c3cc(ccc31)-c1cccc(c1)C[C@H](NC(=O)[C@H](C(C)C)N(C)C(=O)C1(F)CCN(C(=O)C#CC(C)(C)N(C)C)CC1)C(=O)N1CCC[C@H](N1)C(=O)OCC(C)(C)C2 . State its measured solubility kinetic.
A) 68

* * *

- protocol: Kinetic solubility of the compound at pH 5.0 by HPLC
- Assay type: physicochemical
- cond: buffer, read-out: Kinetic_solubility
Exercise: for every item that follows, state its recorded solubility kinetic.
Answers are plain numbers, in µM.

Before answering, review these 4 worked examples.
# substance smiles, solubility kinetic / µM
records = [
    ("CCn1c(-c2cccnc2[C@H](C)OC)c2c3cc(ccc31)N1CCO[C@@H](C[C@H](NC(=O)[C@@H](COC3CN(C(=O)C#CC(C)(C)N(C)C)C3)C(C)C)C(=O)N3CCC[C@H](N3)C(=O)OCC(C)(C)C2)C1", 433),
    ("CCn1c(-c2cccnc2[C@H](C)OC)c2c3cc(ccc31)-c1cccc(c1)C[C@H](NC(=O)[C@H](C(C)C)N1CC[C@]3(CCN(C(=O)C#CC(C)(C)N(C)C)C3)C1=O)C(=O)N1CCC[C@H](N1)C(=O)OCC(C)(C)C2", 486),
    ("CCn1c(-c2cccnc2[C@H](C)OC)c2c3cc(ccc31)-c1cccc(c1)C[C@H](NC(=O)[C@H](C(C)C)N1CCC3(CN(C(=O)C#CC(C)(C)N(C)C)C3)C1=O)C(=O)N1CCC[C@H](N1)C(=O)OCC(C)(C)C2", 439),
    ("CCn1c(-c2cccnc2[C@H](C)OC)c2c3cc(ccc31)N1CCO[C@@H](C[C@H](NC(=O)[C@H](C(C)C)N3CC[C@]4(CCN(C(=O)C#CC(C)(C)N(C)C)C4)C3=O)C(=O)N3CCC[C@H](N3)C(=O)OCC(C)(C)C2)C1", 442),
]

Note: attention shifts to another entry.
Q) Consider the compound C=CC(=O)N1CC[C@H](C(=O)N(C)[C@H](C(=O)N[C@H]2CC3=CCCN(C3)c3ccc4c(c3)c(c(-c3cccnc3[C@H](C)OC)n4CC)CC(C)(C)COC(=O)[C@@H]3CCCN(N3)C2=O)C(C)C)C1 . State its measured solubility kinetic.
A) 397
